Reported MIC values, Trichophyton rubrum.
valueType: MIC (µg/mL)

# example entries with known answers
[ask] Data request, read-out MIC, for Cc1ccc(SCCCNC(Cn2ccnc2)c2ccc(Cl)cc2Cl)cc1 (stereo not shown)
[reply] 0.78

[ask] Data request, read-out MIC, for Cc1ccc(OCCCNC(Cn2cncn2)c2ccc(Cl)cc2Cl)cc1 (stereo not shown)
[reply] 3.12

[ask] Data request, read-out MIC, for Clc1ccc(C(Cn2ccnc2)NCCCSc2ccc3ccccc3c2)c(Cl)c1 (stereo not shown)
[reply] 1.56

[ask] Data request, read-out MIC, for Clc1ccc(COC(Cn2ccnc2)c2ccc(Cl)cc2Cl)c(Cl)c1 (stereo not shown) [A, reference compound]
[reply] 6.25

[ask] Data request, read-out MIC, for Clc1ccc(SCCCNC(Cn2ccnc2)c2cccc3ccccc23)cc1 (stereo not shown)
[reply] 1.56

A: CN(CCCOc1ccc(Cl)cc1)C(Cn1ccnc1)c1ccc(Cl)cc1Cl (stereo not shown)
B: Clc1ccc(C(Cn2cncn2)NCCCSc2ccc(Br)cc2)c(Cl)c1 (stereo not shown)
C: Clc1ccc(C(Cn2ccnc2)NCCCSc2ccccc2)c(Cl)c1 (stereo not shown)
D: Clc1ccc(SCCCNC(Cn2cncn2)c2ccc(Cl)cc2)cc1 (stereo not shown)
[ask] Arrange these compounds by their MIC, starting with the largest number. Respond with the label ranking, as requested.
[reply] B, D, C, A
(B: 6.25 µg/mL, D: 3.12 µg/mL, C: 1.56 µg/mL, A: 0.78 µg/mL)

* * *

Tested on: Microsporum canis
valueType: MIC (µg/mL)

# example entries with known answers
[ask] Data request, read-out MIC, for Clc1ccc(C(Cn2ccnc2)NCCSc2ccc(Br)cc2)c(Cl)c1 (centres unmarked)
[reply] 6.25

[ask] Data request, read-out MIC, for Clc1ccc(C(Cn2ccnc2)NCCCSc2ccccc2)c(Cl)c1 (centres unmarked)
[reply] 3.12

a: Clc1ccc(SCCNC(Cn2cncn2)c2ccc(Cl)cc2Cl)cc1 (centres unmarked)
b: Cc1cc(Cl)ccc1OCCCNC(Cn1cncn1)c1ccc(Cl)cc1Cl (centres unmarked)
c: CN(CCCSCc1ccc(Cl)cc1)C(Cn1ccnc1)c1ccc(Cl)cc1Cl (centres unmarked)
d: Clc1ccc(C(Cn2ccnc2)NCCCSc2ccc3ccccc3c2)c(Cl)c1 (centres unmarked)
e: Clc1ccc(C(Cn2cncn2)NCCSc2ccc(Br)cc2)c(Cl)c1 (centres unmarked)
[ask] Arrange these molecules by their MIC, starting with the largest number. Respond with the label ranking, as requested.
[reply] e, b, a, c, d
(e: 100 µg/mL, b: 12.5 µg/mL, a: 6.25 µg/mL, c: 1.56 µg/mL, d: 0.78 µg/mL)

a: Clc1ccc(SCCCNC(Cn2ccnc2)c2ccc(Br)cc2)cc1 (centres unmarked)
b: Clc1ccc(C(Cn2ccnc2)NCCCSc2ccc(Br)cc2)c(Cl)c1 (centres unmarked)
c: Cc1ccc(SCCCNC(Cn2ccnc2)c2ccc(Cl)cc2Cl)cc1 (centres unmarked)
[ask] rank_up(items): orders items by reported MIC in ascending numerical order. Respond with the label ranking, as requested.
[reply] b, c, a
(b: 0.78 µg/mL, c: 3.12 µg/mL, a: 6.25 µg/mL)

* * *

Let's look at some molecules and their measured MIC Asp.fu..
Test system: Aspergillus fumigatus
experimentalDetails: In vitro determination of minimum inhibitory concentration (MIC), serial dilution
Type: cell-based
testParameters: 20160 min, pH 6

[ask] Data request, read-out MIC Asp.fu., for Cc1cc(Cl)ccc1OCCCNC(Cn1cncn1)c1ccc(Cl)cc1Cl (stereo not shown)
[reply] 100 µg/mL

Continuing:
[ask] Data request, read-out MIC Asp.fu., for CN(CCCOc1ccc(I)cc1)C(Cn1ccnc1)c1ccc(Cl)cc1Cl (stereo not shown)
[reply] 3,12 μg/ml

* * *

experimentalDetails: Determination of the LD50 by i.v. administration
Format: in vivo
testParameters: mouse, in vivo, iv, mice, female; range in parentheses
valueType: LD50 (mg/kg)
Note: unit mg/kg is implicit; provide only the numeric part.

[ask] Data request, read-out LD50, for Cl.Cl.Clc1ccc(SCCCNC(Cn2ccnc2)c2ccc(Cl)cc2Cl)cc1 (stereo not shown) [Compound 96]
[reply] 84.1

* * *

experimentalDetails: Determination of the LD50 by i.v. administration
Type: in vivo
testParameters: rat, in vivo, iv, rats, female; range in parentheses
valueType: LD50 (mg/kg)
Note: unit mg/kg is implicit; provide only the numeric part.

[ask] Data request, read-out LD50, for Cl.Cl.Clc1ccc(SCCCNC(Cn2ccnc2)c2ccc(Cl)cc2Cl)cc1 (stereo not shown)
[reply] 56.1

* * *

Test system: Trichophyton verrucosum
experimentalDetails: In vitro determination of minimum inhibitory concentration (MIC), serial dilution
Format: cell-based
testParameters: 336 h, pH 6, Trichophyton verrucosum, pH 6.0, 22° C., 14 days
valueType: MIC (µg/mL)

# example entries with known answers
[ask] Data request, read-out MIC, for Clc1ccc(C(Cn2cncn2)NCCCOc2c(Cl)cccc2Cl)c(Cl)c1 (stereo not drawn)
[reply] 1.56

[ask] Data request, read-out MIC, for Clc1ccc(C(Cn2cncn2)NCCCSc2ccc(Br)cc2)c(Cl)c1 (stereo not drawn)
[reply] 12.5

[ask] Data request, read-out MIC, for Clc1ccc(C(Cn2ccnc2)NCCSc2ccc(Br)cc2)c(Cl)c1 (stereo not drawn)
[reply] 1.56

[ask] Data request, read-out MIC, for Cc1cc(Cl)ccc1OCCCNC(Cn1cncn1)c1ccc(Cl)cc1Cl (stereo not drawn)
[reply] 6.25

[ask] Data request, read-out MIC, for COc1ccc(OCCCNC(Cn2ccnc2)c2ccc(Cl)cc2Cl)cc1 (stereo not drawn)
[reply] 6.25

A: COc1ccc(SCCNC(Cn2ccnc2)c2ccc(Cl)cc2Cl)cc1 (stereo not drawn)
B: Cc1ccc(SCCCNC(Cn2ccnc2)c2ccc(Cl)cc2Cl)cc1 (stereo not drawn)
C: Clc1ccc(C(Cn2ccnc2)NCCCSc2ccc3ccccc3c2)c(Cl)c1 (stereo not drawn)
D: Clc1ccc(C(Cn2ccnc2)NCCCSc2c(Cl)cccc2Cl)c(Cl)c1 (stereo not drawn)
E: Clc1ccc(OCCNC(Cn2cncn2)c2ccc(Cl)cc2Cl)cc1 (stereo not drawn)
[ask] rank_up(items): orders items by reported MIC in ascending numerical order. Respond with the label ranking, as requested.
[reply] B, C, D, A, E
(B: 0.78 µg/mL, C: 1.56 µg/mL, D: 3.12 µg/mL, A: 6.25 µg/mL, E: 12.5 µg/mL)

A: Clc1ccc(SCCCCCNC(Cn2ccnc2)c2ccc(Cl)cc2Cl)cc1 (stereo not drawn)
B: Clc1ccc(SCCNC(Cn2cncn2)c2ccc(Cl)cc2Cl)cc1 (stereo not drawn)
[ask] Name the one with the greater MIC value, either A or B as given. Answer with the label corresponding to your selection.
[reply] A
(A: 6.25 µg/mL, B: 3.12 µg/mL)

1: CN(CCCSCc1ccc(Cl)cc1)C(Cn1ccnc1)c1ccc(Cl)cc1Cl (stereo not drawn)
2: Clc1ccc(OCCCCNC(Cn2cncn2)c2ccc(Cl)cc2Cl)cc1 (stereo not drawn)
3: Clc1ccc(SCCNC(Cn2ccnc2)c2ccc(Cl)cc2Cl)cc1 (stereo not drawn)
[ask] Arrange these molecules by their MIC, starting with the largest number. Respond with the label ranking, as requested.
[reply] 1, 2, 3
(1: 6.25 µg/mL, 2: 3.12 µg/mL, 3: 0.78 µg/mL)

1: Clc1ccc(C(Cn2ccnc2)NCCSc2ccc3ccccc3c2)c(Cl)c1 (stereo not drawn)
2: CN(CCCOc1ccc(Cl)cc1)C(Cn1ccnc1)c1ccc(Cl)cc1Cl (stereo not drawn)
3: Clc1ccc(SCCCNC(Cn2ccnc2)c2ccc(Br)cc2)cc1 (stereo not drawn)
[ask] Arrange these molecules by their MIC, starting with the largest number. Respond with the label ranking, as requested.
[reply] 3, 1, 2
(3: 6.25 µg/mL, 1: 3.12 µg/mL, 2: 1.56 µg/mL)

* * *

Test system: Candida albicans
experimentalDetails: In vitro determination of minimum inhibitory concentration (MIC), serial dilution
Format: cell-based
testParameters: 336 h, pH 6, Candida albicans, pH 6.0, 22° C., 14 days, read-out: MIC C.alb
valueType: MIC (mg/L)

# example entries with known answers
[ask] Lab note: need MIC for Clc1ccc(SCCCNC(Cn2ccnc2)c2ccc(Br)cc2)cc1 (stereo not shown) [Compound 100] on Candida albicans, anyone have it?
[reply] 3.12

[ask] Lab note: need MIC for Clc1ccc(SCCCNC(Cn2ccnc2)c2cccc3ccccc23)cc1 (stereo not shown) [Compound 139] on Candida albicans, anyone have it?
[reply] 3.12

[ask] Lab note: need MIC for Clc1ccc(C(Cn2ccnc2)NCCCSc2ccc3ccccc3c2)c(Cl)c1 (stereo not shown) [Compound 114] on Candida albicans, anyone have it?
[reply] 3.12

[ask] Lab note: need MIC for Cl.Cl.Clc1ccc(SCCCNC(Cn2ccnc2)c2ccc(Cl)cc2Cl)cc1 (stereo not shown) [Compound 96] on Candida albicans, anyone have it?
[reply] 0.39

[ask] Lab note: need MIC for Clc1ccc(SCCCNC(Cn2ccnc2)c2ccc(Cl)cc2Cl)cc1 (stereo not shown) [Compound 2] on Candida albicans, anyone have it?
[reply] 3.12

a: Clc1ccc(C(Cn2ccnc2)NCCCSc2ccc(Br)cc2)c(Cl)c1 (stereo not shown) [Compound 105]
b: Cc1ccc(SCCCNC(Cn2ccnc2)c2ccc(Cl)cc2Cl)cc1 (stereo not shown) [Compound 92]
[ask] Name the one with the greater MIC value, either a or b as given. Answer with the label corresponding to your selection.
[reply] b
